Tested on: gramicidin D channels in DC22:1PC lipid vesicles (bilayer-modifying potency)
Experiment: initial Tl+ fluorescence quench rate relative to no-drug control (NormRate, gramicidin monomer-dimer shift) (ratio (fold of control)); higher = stronger bilayer-modifying effect (equilibrium shifted toward conducting dimers), active = 1.5 or more
Settings: 10 µM; lipid concentration 50 µM; temperature: 25 °C
Measurement Label: initial Tl+ fluorescence quench rate
Enter the number alone.

Solved entries (count: 2):
[[record]]
cpd_smiles = "Cc1cc(OCC(=O)NCc2ccccc2)c2cc(Br)ccc2n1"
measurement_label = "initial Tl+ fluorescence quench rate"
observed_result = 1.45

[[record]]
cpd_smiles = "Nc1ncnc2c1ncn2C[C@@H](O)[C@@H](O)C(=O)O"
measurement_label = "initial Tl+ fluorescence quench rate"
observed_result = 1.05


Query initial Tl+ fluorescence quench rate on gramicidin D channels in DC22:1PC lipid vesicles (bilayer-modifying potency) for c1ccc(-c2cc(N3CCCCC3)c3ccccc3n2)nc1
1.08

Query initial Tl+ fluorescence quench rate on gramicidin D channels in DC22:1PC lipid vesicles (bilayer-modifying potency) for Nc1nc(N)c2c3c(sc2n1)CN(Cc1ccccc1)CC3
1.04

Query initial Tl+ fluorescence quench rate on gramicidin D channels in DC22:1PC lipid vesicles (bilayer-modifying potency) for FC(F)(F)c1cnc(Sc2nnc(-c3ccncc3)o2)c(Cl)c1
1.23

* * *

Tested on: gramicidin D channels in DC22:1PC lipid vesicles (bilayer-modifying potency)
Assay: initial Tl+ fluorescence quench rate relative to no-drug control (NormRate, gramicidin monomer-dimer shift) (ratio (fold of control)); higher = stronger bilayer-modifying effect (equilibrium shifted toward conducting dimers), active = 1.5 or more
Details: 10 µM; lipid concentration 50 µM; temperature: 25 °C
Assign a class; possible classes are active, inactive

Example cases with answers are listed next.
[[record]]
cpd_smiles = "CNC(=O)[C@H]1Cc2ccccc2N1C(=O)Cc1ccc(F)cc1"
cat = "inactive"

[[record]]
cpd_smiles = "Cc1cc(C)n(-c2ccc(NC(=O)C3CCN(Cc4cnc(C)s4)CC3)cc2)n1"
cat = "inactive"

[[record]]
cpd_smiles = "CC[C@H](Sc1nc2ccccc2o1)C(=O)Nc1nccs1"
cat = "inactive"

[[record]]
cpd_smiles = "CC(C)(C(=O)Nc1ccc(F)cc1)n1cc(-c2ccccc2F)cn1"
cat = "inactive"

[[record]]
cpd_smiles = "CCOc1ccc2cc(-c3nn(CC4CCN(C)CC4)c4ncnc(N)c34)ccc2c1"
cat = "inactive"

[[record]]
cpd_smiles = "Clc1cccc(CO[C@H]2CCc3ccccc3[C@@H]2n2ccnn2)c1"
cat = "inactive"

[[record]]
cpd_smiles = "Cc1cc(NC(=O)c2ccc(Oc3ccc(Cl)cc3O)o2)no1"
cat = "inactive"

[[record]]
cpd_smiles = "Cc1cc(NC(=O)c2ccc(S(=O)(=O)N(Cc3ccccc3)C(C)C)cc2)no1"
cat = "inactive"

[[record]]
cpd_smiles = "CC[P](CC)(CC)=[Au][S][C@H]1O[C@@H](COC(C)=O)[C@H](OC(C)=O)[C@@H](OC(C)=O)[C@@H]1OC(C)=O"
cat = "inactive"

[[record]]
cpd_smiles = "O=C(Nc1nnc(-c2ccc(Cl)cc2)o1)c1cccc(C(F)(F)F)c1"
cat = "inactive"


Please find the next molecule below.
Please let me know the test result on file for O=C([C@@H](c1ccc(Cl)cc1)c1cccnc1)N1CCN(c2ccc(C(F)(F)F)cc2)CC1 .
active
